The reported measurements were obtained from patent US9782395B2.

- EXPERIMENT: Pharmacokinetic profile and brain distribution after single oral and intravenous dose
- Type: in vivo, male C57 BL/6 mice
- STUDY_CONDITIONS: male, mouse, plasma; single intravenous 1 mg/kg, C57BL/6 mice; read-out: terminal elimination plasma half-life (converted)
READOUT_LABEL: half-life (h)
Quick reminder: number only, in h, skip the unit.

Incoming: # lookup: half-life of CC(O)c1ccc(CCOc2ccc(CC3SC(=O)NC3=O)cc2)nc1 (racemic) [compound (1)]
Outgoing: 1.79

###

- EXPERIMENT: Pharmacokinetic profile and brain distribution after single oral and intravenous dose
- Format: in vivo, male C57 BL/6 mice
- STUDY_CONDITIONS: male, mouse, plasma; single oral 4.5 mg/kg, C57BL/6 mice; read-out: Tmax in plasma
READOUT_LABEL: Tmax (min)
Quick reminder: number only, in min, skip the unit.

Incoming: # lookup: Tmax of CC(O)c1ccc(CCOc2ccc(CC3SC(=O)NC3=O)cc2)nc1 (racemic)
Outgoing: 30
